# Experiment: chemical genetic growth profiling, strain panel (AID 1159580);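 also: tested at 20 µM; growth read once vehicle control cultures reached saturation at 30 °C; 1 = growth at the plate median or of vehicle wells; lower values mean less growth of the strain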
# Conditions used: S. cerevisiae deletion strains, growth OD, locus YPR167C, strain met16
Screen size: about 5,500 compounds; about 2,000 (36%) were called active. Roughly 18% stayed inconclusive and do not appear here. Rule as the data show it: active = normalized growth mostly below about 0.91 (no sharp cut-off); inconclusive = no clear call, values can overlap the other calls; inactive = mostly above about 0.92. This is one part of the list.
Field 'call' accepts active, inactive

[ask] Please indicate how the test categorized CN=C(NC#N)NCCSCc1nc[nH]c1C .
[reply] inactive

[ask] What do you have for Cc1cc(C(C)(C)CC(C)(C)C)ccc1OCCOCC[N+](C)(C)Cc1ccccc1 ?
[reply] active

[ask] How about S=C=NCc1ccccc1 ?
[reply] active

[ask] Next entry: CCCCOc1ccc(OCCCN2CCOCC2)cc1
[reply] inactive

[ask] Query CC(C)(C)CC(C)(C)c1ccc(OCCOCC[N+](C)(C)Cc2ccccc2)cc1 next
[reply] inactive

[ask] Also CCCCOc1ccc(C(=O)CCN2CCCCC2)cc1 ?
[reply] active

[ask] Now try Cc1ccc(C(=O)C(C)CN2CCCCC2)cc1 (stereo not drawn) .
[reply] inactive

[ask] What about OC(CCN1CCCCC1)(c1ccccc1)c1ccccc1 ?
[reply] inactive

---

# Experiment: chemical genetic growth profiling, strain panel (AID 1159580);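 also: tested at 20 µM; growth read once vehicle control cultures reached saturation at 30 °C; 1 = growth at the plate median or of vehicle wells; lower values mean less growth of the strain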
# Conditions used: S. cerevisiae deletion strains, growth OD, locus YDL101C, strain DUN1, stronger effect = lower value
Out of some 5,500 compounds screened, about 2,000 (36%) were called active. Roughly 18% stayed inconclusive and do not appear here. The list shows a part of the results.
Answer each item with its documented normalized growth.
Give a plain numeric answer without units written out.

[ask] Which value of normalized growth has been reported for Nc1nc2[nH]c(=O)c(=O)[nH]c2c(=O)[nH]1 in the records?
[reply] 1

[ask] Now consider CCCCOc1ccc(C(=O)CCN2CCCCC2)cc1 .
[reply] 0.907

[ask] // query: Cc1c(N(C)C)c(=O)n(-c2ccccc2)n1C
[reply] 0.983

[ask] // same read-out, input: CCc1cccc(C)c1N(C(=O)CCl)C(C)COC (stereo not given)
[reply] 1.02

[ask] Record: O[C@H]1C=C2CCN3Cc4cc5c(cc4C(C23)[C@@H]1O)OCO5 (stereo not given in full)
[reply] 0.575

[ask] What about this compound? CC(=C(CCOP(=O)(O)O)SC(=O)c1ccccc1)N(C=O)Cc1cnc(C)nc1N
[reply] 1.01

[ask] Please do the same for Cc1ccc2cc(C)c(C)cc2c1 as well.
[reply] 1.02

[ask] Subsequent entry: S=C=NCc1ccccc1
[reply] 0.0649

[ask] Now consider CC(=O)O[C@H]1C(=O)[C@@]2(C)C([C@H](OC(=O)c3ccccc3)[C@]3(O)C[C@H](OC(=O)[C@H](O)[C@@H](NC(=O)c4ccccc4)c4ccccc4)C(C)=C1C3(C)C)[C@]1(OC(C)=O)CO[C@@H]1C[C@@H]2O (stereo not given in full) and answer again.
[reply] 1.03

[ask] Then what about the compound CC(=O)O[C@]1(C(C)=O)CCC2C3C=C(C)C4=CC(=O)CCC4(C)C3CCC21C (stereo not given in full) ?
[reply] 0.982

[ask] Thanks! And CN(C)/C=C1\C(=O)c2ccccc2N(C)S1(=O)=O ?
[reply] 0.999

[ask] # iterate: Cc1oc2c(F)c(F)c(F)c(F)c2c1C(=O)ONC(N)c1ccc(OS(=O)(=O)N(C)C)cc1 (stereo not given)
[reply] 0.985

[ask] Queued: CCCC(C)(SCC(=O)O)SCC(=O)O
[reply] 1.09

[ask] And Cc1c(C(=O)O)cc(-c2ccccc2)n1-c1ccccc1 ?
[reply] 1

[ask] Next entry: COc1cc(O)c2c(=O)cc(C)oc2c1CC=C(C)C
[reply] 0.954

[ask] Then CCc1nc(N)nc(N)c1-c1ccc(Cl)cc1 ?
[reply] 1

[ask] Also check Cc1cc(=O)c2c(O)cc(O)c(C)c2o1
[reply] 0.975

[ask] Lookup CCCCOc1cc(C(=O)O)ccc1OC
[reply] 0.987

[ask] Query O=C(O)c1cc(=O)c2cc(Cl)ccc2[nH]1 next
[reply] 1

[ask] Consider next the compound O=C(O)C1CC([C@@H]2CCCCN2)CN2CCCCC12 (stereo not given in full) in the same way.
[reply] 1.03

[ask] Quick one: N#Cc1c(Cl)c(Cl)c(Cl)c(Cl)c1C#N
[reply] 0.789

[ask] Now the compound Cc1cc(=O)c2c(O)c(C)c(O)cc2o1
[reply] 0.991

[ask] Then what about the compound CO[C@H]1C[C@H](O[C@H]2[C@H](C)[C@@H](OC3O[C@H](C)C[C@H](N(C)C)[C@H]3O)[C@@H](C)C[C@]3(CO3)C(=O)[C@H](C)[C@@H](O)[C@@H](C)[C@@H](C)OC(=O)[C@@H]2C)O[C@@H](C)[C@@H]1O (stereo not given in full) ?
[reply] 1.02

[ask] Another compound: NC(N)=Nc1nc(-c2cc(Cl)sc2Cl)cs1
[reply] 0.966

[ask] Now consider C=CCc1ccc2c(c1)OCO2 and answer again.
[reply] 0.999

[ask] Subsequent entry: CCCCCC(=O)O[C@]1(C(C)=O)CCC2C3CCC4=CC(=O)CC[C@]4(C)C3CC[C@@]21C (stereo not given in full)
[reply] 1.01

[ask] Here is the next compound: COc1ccc2cc1Oc1ccc(cc1)C[C@H]1c3cc(c(OC)cc3CCN1C)Oc1c(OC)c(OC)cc3c1[C@H](C2)N(C)CC3
[reply] 1.01

[ask] And the next one, COC(=O)c1c(Cl)c(Cl)c(C(=O)OC)c(Cl)c1Cl ?
[reply] 0.978

[ask] Queued: COc1c(O)cc2oc3cc(O)c(CC=C(C)C)c(O)c3c(=O)c2c1CC=C(C)C
[reply] 0.633

[ask] Then what about the compound CCC(C(=O)O)c1ccccc1 (stereo not given) ?
[reply] 1

[ask] Same question for CCC(C)c1ccccc1NC(=O)c1cc2cccc([N+](=O)[O-])c2[nH]1 (stereo not given) please.
[reply] 0.949

[ask] Would you mind doing CNc1ccccc1C(=O)N1CCc2c([nH]c3ccccc23)C1=O as well?
[reply] 1.02

[ask] Please answer likewise for Cc1ccc(Oc2ccc(C)cc2)cc1
[reply] 1.01

[ask] Let us now turn to CCc1ccc(CCOc2ccc(CC3SC(=O)NC3=O)cc2)nc1 (stereo not given)
[reply] 1.01

[ask] Can you handle OCc1ccccc1O[C@@H]1O[C@H](CO)[C@@H](O)[C@H](O)[C@H]1O next?
[reply] 0.976

[ask] Next record, please: CC(=O)[C@H]1CCC2C3C[C@H](C)C4=CC(=O)CC[C@]4(C)C3[C@@H](O)C[C@@]21C (stereo not given in full)
[reply] 0.993

[ask] Now the compound N#Cc1c(Cl)c(Cl)c(Cl)c(C#N)c1Cl
[reply] 1

[ask] Now the same for CC1(C)/C(=N/OC(=O)c2cccc(C(F)(F)F)c2)[C@]2(C)CCC1C2
[reply] 1.04

[ask] Now this one: OCC(O)Cc1ccc2c(c1)OCO2 (stereo not given)
[reply] 1.02

[ask] Record: CN1C(=O)CN=C(c2ccccc2)c2ccccc21
[reply] 0.995

[ask] CCCCOc1ccc(OCCCN2CCOCC2)cc1 ?
[reply] 0.963

[ask] Now give it for Cc1cc(NC(=O)C(Cl)(Cl)Cl)n(-c2ccccc2)n1 too.
[reply] 0.995

[ask] Lookup O=C(O)COCC(=O)N1CCc2c([nH]c3ccccc23)C1C(F)(F)F (stereo not given)
[reply] 1.02

[ask] Then NC(N)=Nc1nc(CSCCC(N)=NS(N)(=O)=O)cs1 ?
[reply] 1.01

[ask] Again, but for OC(CCN1CCCCC1)(c1ccccc1)c1ccccc1
[reply] 1.01

---

# Experiment: chemical genetic growth profiling, strain panel (AID 1159580);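 also: tested at 20 µM; growth read once vehicle control cultures reached saturation at 30 °C; 1 = growth at the plate median or of vehicle wells; lower values mean less growth of the strain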
# Conditions used: S. cerevisiae deletion strains, growth OD, locus YNL183C, strain NPR1, stronger effect = lower value
Screen size: about 5,500 compounds; about 2,000 (36%) were called active. Roughly 18% stayed inconclusive and do not appear here. The list shows a part of the results.
Quantity: normalized growth

[ask] Which normalized growth is listed for CCC1(C)CC(=O)NC1=O (configuration not stated) ?
[reply] 0.906 (inactive)

[ask] Further, for CCC(C)c1ccccc1NC(=O)c1cc2cccc([N+](=O)[O-])c2[nH]1 (configuration not stated) ?
[reply] 0.774 (inactive)

[ask] What about C[C@@H]1O[C@@H](O[C@H]2[C@@H](Oc3cc(O)c4c(c3)O[C@H](c3ccc(O)cc3)CC4=O)O[C@H](CO)[C@@H](O)[C@@H]2O)[C@H](O)[C@H](O)[C@H]1O ?
[reply] 0.92 (inactive)

[ask] Also, CCCCCCCCCCCCCCCCOP(=O)([O-])OCC[N+](C)(C)C please.
[reply] 0.912 (inactive)

[ask] Again, but for O=C(O)c1ccccc1OP(=O)(O)O
[reply] 0.872 (inactive)

[ask] Please answer likewise for N#Cc1c(Cl)c(Cl)c(Cl)c(Cl)c1C#N
[reply] 0.241 (active)

[ask] # repeat for O=C(Nc1c(Br)c(C2CC2)nn1-c1ccccc1)C(Cl)(Cl)Cl
[reply] 0.864 (inactive)

[ask] Same thing, different compound: C[N+](C)(C)CCOP(=O)([O-])OP(=O)(O)OC[C@H]1OC(n2ccc(N)nc2=O)[C@H](O)[C@@H]1O (some centres not stated)
[reply] 0.964 (inactive)

[ask] // next record Cc1ccc2c(c1)CC[C@H]1CC(=O)CC[C@]21C
[reply] 0.907 (inactive)

[ask] Another compound to look at: O=C(/C=C/c1ccccc1)O[C@H]1C[C@@H](O)[C@]2(O)C=CO[C@@H](O[C@@H]3O[C@H](CO)[C@@H](O)[C@H](O)[C@H]3O)[C@H]12
[reply] 0.951 (inactive)

[ask] For CC1=CC(=O)C(CCOCCC2=CC(=O)C(C)=CC2=O)=CC1=O then?
[reply] 0.793 (inactive)

[ask] # repeat for O=C1C[C@@H](c2ccc(O)cc2)Oc2cc(O)cc(O)c21
[reply] 0.936 (inactive)

[ask] Please give the result for COc1ccc2cc1Oc1ccc(cc1)C[C@H]1c3c(cc4c(c3Oc3cc5c(cc3OC)CCN(C)[C@@H]5C2)OCO4)CCN1C too.
[reply] 0.951 (inactive)

[ask] What do you have for CC(C)CC(NC(=O)CCN)C(=O)O (configuration not stated) ?
[reply] 0.886 (inactive)

[ask] # repeat for C[CH2][Hg][S]c1ccccc1C(=O)O
[reply] 0.004 (active)

[ask] And then CCC1(c2ccccc2)C(=O)NCNC1=O , what is it?
[reply] 0.975 (inactive)

[ask] What would you report for CCC1(c2ccc(N)cc2)CCC(=O)NC1=O (configuration not stated) ?
[reply] 0.974 (inactive)

[ask] Item: Oc1c(Cl)c(Cl)c(Cl)c(Cl)c1Cl
[reply] -0.00166 (active)

[ask] Now the compound O=C(Oc1cc(Cl)c(Cl)cc1Cl)C1c2ccccc2Oc2ccccc21
[reply] 0.884 (inactive)

[ask] And the next one, CCC(C(N)=O)c1ccccc1 (configuration not stated) ?
[reply] 0.903 (inactive)

[ask] Moving on to COc1ccc2cc1Oc1ccc(cc1)C[C@H]1c3cc(c(OC)cc3CCN1C)Oc1c(OC)c(OC)cc3c1[C@H](C2)N(C)CC3
[reply] 0.999 (inactive)

[ask] What would you report for CC(C)[N+](C)(CCOC(=O)C1c2ccccc2Oc2ccccc21)C(C)C ?
[reply] 0.971 (inactive)
